Biological target: Human source HDAC1 (Homo sapiens, UniProt Q13547)
Sequence (Q13547 whole entry): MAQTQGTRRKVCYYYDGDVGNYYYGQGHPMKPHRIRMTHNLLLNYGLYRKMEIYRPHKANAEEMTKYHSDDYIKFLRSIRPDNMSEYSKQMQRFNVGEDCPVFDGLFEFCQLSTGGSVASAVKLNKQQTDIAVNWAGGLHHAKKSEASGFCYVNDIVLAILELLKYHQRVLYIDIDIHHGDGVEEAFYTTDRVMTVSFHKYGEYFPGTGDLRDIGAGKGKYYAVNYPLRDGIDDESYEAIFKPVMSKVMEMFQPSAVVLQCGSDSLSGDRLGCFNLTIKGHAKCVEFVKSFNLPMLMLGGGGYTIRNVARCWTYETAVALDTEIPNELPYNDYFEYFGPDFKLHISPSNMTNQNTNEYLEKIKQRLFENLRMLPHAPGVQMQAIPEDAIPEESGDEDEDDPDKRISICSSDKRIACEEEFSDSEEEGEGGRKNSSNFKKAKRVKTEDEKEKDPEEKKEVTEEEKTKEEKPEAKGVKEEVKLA
measuredParameter: IC50 (nM)
Kindly provide the numeric value in nM only, without the unit symbol.

For the compound shown here, O=C(CO)N/N=C(/CCCCNC(=O)c1nc(-c2nccs2)sc1C1CC1)C(F)(F)F [HD 46] , give the reported IC50.
500

---

Biological target: Human source HDAC6 (Homo sapiens, UniProt Q9UBN7)
Sequence (Q9UBN7 whole entry): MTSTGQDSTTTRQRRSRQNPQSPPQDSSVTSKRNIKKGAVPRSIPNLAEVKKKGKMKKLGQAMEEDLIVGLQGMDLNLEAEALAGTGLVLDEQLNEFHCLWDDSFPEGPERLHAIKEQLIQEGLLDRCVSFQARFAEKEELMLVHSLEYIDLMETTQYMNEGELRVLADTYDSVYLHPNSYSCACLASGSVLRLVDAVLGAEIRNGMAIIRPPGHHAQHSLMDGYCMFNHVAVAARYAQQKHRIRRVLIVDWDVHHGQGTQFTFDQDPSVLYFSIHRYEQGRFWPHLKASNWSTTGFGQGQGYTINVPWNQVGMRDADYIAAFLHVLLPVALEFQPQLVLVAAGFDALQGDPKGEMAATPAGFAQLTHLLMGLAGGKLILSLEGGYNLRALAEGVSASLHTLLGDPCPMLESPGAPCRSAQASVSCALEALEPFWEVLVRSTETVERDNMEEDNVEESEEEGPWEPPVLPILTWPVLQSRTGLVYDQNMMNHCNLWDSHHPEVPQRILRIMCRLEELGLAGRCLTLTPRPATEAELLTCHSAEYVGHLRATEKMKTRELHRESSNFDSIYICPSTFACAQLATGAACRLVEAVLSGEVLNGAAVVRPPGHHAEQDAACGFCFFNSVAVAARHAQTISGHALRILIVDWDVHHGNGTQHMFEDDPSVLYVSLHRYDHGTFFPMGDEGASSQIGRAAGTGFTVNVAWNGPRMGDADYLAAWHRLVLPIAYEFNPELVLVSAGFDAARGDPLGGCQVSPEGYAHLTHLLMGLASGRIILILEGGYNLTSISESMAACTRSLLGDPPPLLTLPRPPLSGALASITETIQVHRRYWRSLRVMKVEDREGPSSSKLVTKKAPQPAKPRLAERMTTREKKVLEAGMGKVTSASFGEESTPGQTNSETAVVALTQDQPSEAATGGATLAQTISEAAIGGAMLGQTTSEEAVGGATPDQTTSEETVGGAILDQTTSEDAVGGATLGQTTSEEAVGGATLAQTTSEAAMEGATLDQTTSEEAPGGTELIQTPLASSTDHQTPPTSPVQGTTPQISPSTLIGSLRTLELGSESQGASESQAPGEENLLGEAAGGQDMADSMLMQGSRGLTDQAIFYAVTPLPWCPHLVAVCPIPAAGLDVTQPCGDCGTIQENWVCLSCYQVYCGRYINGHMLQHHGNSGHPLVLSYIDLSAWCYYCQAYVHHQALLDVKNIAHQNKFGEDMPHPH
IC50 listing for selected compounds.
Respond numerically; units are µM and should not be typed.

Recorded IC50, per entry:
Cc1cnc(-c2nc(C(=O)NCCCCC(=O)C(F)(F)F)c(C3CC3)s2)s1: 0.02
O=C(CO)N/N=C(/CCCCNC(=O)c1nc(-c2nccs2)sc1C1CC1)C(F)(F)F: 0.35

# next compound below
Please look up its IC50: CC(=O)N/N=C(\CCCCNC(=O)c1nc(-c2nccs2)sc1C1CC1)C(F)(F)F
0.08

---

Target: Human source HDAC4 (Homo sapiens, UniProt P56524)
Sequence (P56524 whole entry): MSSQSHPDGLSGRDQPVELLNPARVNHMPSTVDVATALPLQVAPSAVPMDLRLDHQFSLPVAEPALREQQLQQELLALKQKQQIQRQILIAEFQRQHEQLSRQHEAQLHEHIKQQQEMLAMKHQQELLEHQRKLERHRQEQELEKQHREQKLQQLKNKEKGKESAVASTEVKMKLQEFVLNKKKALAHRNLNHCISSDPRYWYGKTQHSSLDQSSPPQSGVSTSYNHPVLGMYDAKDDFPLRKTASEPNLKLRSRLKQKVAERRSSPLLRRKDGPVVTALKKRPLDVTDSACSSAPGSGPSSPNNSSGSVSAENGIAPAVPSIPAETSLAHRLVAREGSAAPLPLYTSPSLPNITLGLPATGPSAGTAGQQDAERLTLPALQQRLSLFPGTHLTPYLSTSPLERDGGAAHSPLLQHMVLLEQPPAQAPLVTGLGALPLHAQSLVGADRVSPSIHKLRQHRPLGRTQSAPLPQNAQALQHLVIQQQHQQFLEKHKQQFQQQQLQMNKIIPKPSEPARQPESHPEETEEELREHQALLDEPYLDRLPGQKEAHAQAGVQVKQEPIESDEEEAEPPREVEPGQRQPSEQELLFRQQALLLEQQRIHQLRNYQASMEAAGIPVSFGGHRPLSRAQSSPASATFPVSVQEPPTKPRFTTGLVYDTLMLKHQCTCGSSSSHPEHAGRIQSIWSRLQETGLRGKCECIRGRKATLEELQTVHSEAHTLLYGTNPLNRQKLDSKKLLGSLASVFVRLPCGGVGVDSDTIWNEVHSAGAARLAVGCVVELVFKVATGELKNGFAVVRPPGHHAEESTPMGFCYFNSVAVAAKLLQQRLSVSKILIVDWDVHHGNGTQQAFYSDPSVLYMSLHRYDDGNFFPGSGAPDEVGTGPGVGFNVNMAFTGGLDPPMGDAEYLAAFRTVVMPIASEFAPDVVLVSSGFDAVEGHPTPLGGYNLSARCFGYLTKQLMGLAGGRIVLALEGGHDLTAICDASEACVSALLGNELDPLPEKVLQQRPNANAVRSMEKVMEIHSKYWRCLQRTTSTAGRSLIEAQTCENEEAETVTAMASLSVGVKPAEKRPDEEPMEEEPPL
Assay: Inhibition activity against histone deacetylase 4 (fluorescence, AMC substrate)
Type: biochemical
Settings: read-out: IC50 against HDAC4
measuredParameter: IC50

What value of IC50 has been recorded for this entry: O=C(NCCCCC(=O)C(F)(F)F)c1nc(-c2nccs2)sc1C1CC1 [HD 1]
~20 nM
